These entries and their values trace back to ChEMBL document CHEMBL1148376.

Tested on: Rattus norvegicus
protocol_details: Drug discrimination effect of compound in rats, expressed as percent of rats choosing the cocaine lever at dose 3 mg/kg (ip)
Format: functional
Measured Drug discrimination effect, listed per entry.
Report as: number unit

| molecule | reported |
| --- | --- |
| Cc1ccc(C2CC3CCC(C2c2cc(C(C)C)no2)N3C)cc1 (centres undefined) | 25% |
| Cc1ccc(-c2cc(C3C(c4ccc(C)cc4)CC4CCC3N4C)on2)cc1 (centres undefined) | 0% |
| CN1C2CC[C@@H]1C[C@H](c1ccc(Cl)cc1)C2c1cc(-c2ccccc2)no1 (some centres undefined) | 29% |

For CN1C2CCC1C(c1cc(-c3ccc(F)cc3)no1)C(c1ccc(Cl)cc1)C2 (centres undefined) , what is its reported Drug discrimination effect?
13%

Repeat with Cc1ccc(C2CC3CCC(C2c2cc(-c4ccc(Cl)cc4)no2)N3C)cc1 (centres undefined)
13%

Next molecule: Cc1ccc(-c2cc(C3C(c4ccc(Cl)cc4)CC4CCC3N4C)on2)cc1 (centres undefined)
14%

Try this molecule next: COC(=O)[C@@H]1C2CC[C@@H](C[C@@H]1OC(=O)c1ccccc1)N2C (single isomer, unassigned)
59%

Next entry: CC(C)c1cc(C2C(c3ccc(Cl)cc3)CC3CCC2N3C)on1 (centres undefined)
63%

Please give the result for CN1C2CCC1C(c1cc(-c3ccc(Cl)cc3)no1)C(c1ccc(Cl)cc1)C2 (centres undefined) too.
13%
